From: patent US20110182850A1

Measured IC50, listed per entry for reference.
Target: HCV NS3-4A serine protease (full-length NS3-4A protein, genotype 1a, strain HCV-1) (Hepatitis C virus genotype 1a, UniProt P26664)
Construct: using the full-length NS3-4A protein (genotype 1a, strain HCV-1)
Sequence (P26664 1658-1711): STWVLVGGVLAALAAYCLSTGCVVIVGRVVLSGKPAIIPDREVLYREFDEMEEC
Sequence (P26664 1027-1657): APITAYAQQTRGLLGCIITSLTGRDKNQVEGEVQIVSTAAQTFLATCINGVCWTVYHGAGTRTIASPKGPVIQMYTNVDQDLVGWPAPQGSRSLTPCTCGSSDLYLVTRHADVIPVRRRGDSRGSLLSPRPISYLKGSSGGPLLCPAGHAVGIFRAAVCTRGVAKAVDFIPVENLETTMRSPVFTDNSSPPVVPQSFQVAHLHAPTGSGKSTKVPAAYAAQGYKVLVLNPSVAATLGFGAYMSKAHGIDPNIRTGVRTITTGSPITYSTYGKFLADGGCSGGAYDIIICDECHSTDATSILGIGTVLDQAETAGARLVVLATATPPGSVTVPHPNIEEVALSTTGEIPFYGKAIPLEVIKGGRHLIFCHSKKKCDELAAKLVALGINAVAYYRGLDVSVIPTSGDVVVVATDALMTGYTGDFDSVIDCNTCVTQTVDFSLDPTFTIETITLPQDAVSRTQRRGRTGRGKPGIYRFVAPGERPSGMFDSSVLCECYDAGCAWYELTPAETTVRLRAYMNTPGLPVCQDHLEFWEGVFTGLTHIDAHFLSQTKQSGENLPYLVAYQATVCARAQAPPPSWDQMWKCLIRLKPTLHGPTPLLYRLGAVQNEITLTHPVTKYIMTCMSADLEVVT
Experiment: HCV NS3-4A protease assay
Assay type: biochemical
Details: Protease IC50
Give the quantity in nM, number only.

Field: example entries. Status: answers known.
MOLECULAR STRING	IC50 [nM]
C=C[C@@H]1C[C@]1(NC(=O)[C@@H]1C[C@@]2(CN1C(=O)[C@@H](NC(=O)[C@@H](NC(=O)[C@@H]1CCCCN1C(C)C)C(C)(C)C)C(C)(C)C)C(C)(C)C21CCC1)C(=O)NS(=O)(=O)Cc1ccccc1	14
C=C[C@@H]1C[C@]1(NC(=O)[C@@H]1C[C@@]2(CN1C(=O)[C@@H](NC(=O)[C@@H](NC(=O)c1ccno1)C(C)(C)C)C(C)(C)C)C(C)(C)C21CCC1)C(=O)NS(=O)(=O)C1CC1	9

# ---- query compound ----
Ask | # input compound: `C=C[C@@H]1C[C@]1(NC(=O)[C@@H]1C[C@@]2(CN1C(=O)[C@@H](NC(=O)[C@@H](NC(=O)[C@@H]1CCCCN1CCF)C(C)(C)C)C(C)(C)C)C(C)(C)C21CCC1)C(=O)NS(=O)(=O)C1CC1` ; wanted: its IC50
Reply | 8
